measurement-target: SARS-CoV-2 Mpro (Severe acute respiratory syndrome coronavirus 2, UniProt P0DTD1)
experiment-summary: biochemical
reported-conditions: read-out: Mpro % inhibition at 10 µM
readout-label: inhibition at 10 µM

Solved cases below.
[[record]]
molecule = "CC1(C)OC2=C(C(=O)C(=O)c3ccccc32)C1n1cc(CNC2=CC(=O)c3ccccc3C2=O)nn1 (stereo not drawn)"
obs_value = "25%"

[[record]]
molecule = "CC(=O)NC1=CC(=O)c2cccc(O)c2C1=O"
obs_value = "29%"


stdin: # inhibition at 10 µM lookup, item Cc1ccc(S(=O)(=O)n2cc(CNC3=C(Cl)C(=O)c4ccccc4C3=O)nn2)cc1
stdout: 11%

Numbers sourced from paper doi:10.1101/2022.01.05.475095v1.
